Data provenance: the supplement of paper PMC5412046

system: SB.mhdgc-1; assay: area under the dose-response curve of % viability (trapezoidal, 11 doses) (% viability x log10 concentration); higher = less cytotoxic; conditions: SB.mhdgc-1 (hereditary c.1380delA CDH1 gastric cancer)

molecule | measured-target | area under the dose-response curve
CC[S+](=O)([O-])N1CC(CC#N)(n2cc(-c3ncnc4[nH]ccc34)cn2)C1 [Baricitinib] (top concentration 46.0829 µM) | SB.mhdgc-1 | 470
Clc1ccc(C(c2ccccc2Cl)C(Cl)Cl)cc1 (stereo unspecified) [Mitotane] (top concentration 46.0829 µM) | SB.mhdgc-1 | 478
O=[S+]([O-])(c1cccc2cnccc12)N1CCCNCC1 [Fasudil] (top concentration 46.0829 µM) | SB.mhdgc-1 | 480
Cc1nc(NC(=O)N2CCC[C@H]2C(N)=O)sc1-c1ccnc(C(C)(C)C(F)(F)F)c1 [BYL-719] (top concentration 46.0829 µM) | SB.mhdgc-1 | 337
N[S+](=O)([O-])OC[C@@H]1C[C@@H](n2ccc3c(N[C@H]4CCc5ccccc54)ncnc32)C[C@@H]1O [MLN-4924] (top concentration 46.0829 µM) | SB.mhdgc-1 | 536
C=CCNc1c(O)cc2c(O)c1C[C@@H](C)C[C@H](OC)[C@H](O)[C@@H](C)/C=C(/C)[C@H](OC(N)=O)[C@@H](OC)/C=C\C=C(\C)C(=O)N2 [Retaspimycin] (top concentration 46.0829 µM) | SB.mhdgc-1 | 384

====

test system: SB.mhdgc-1; assay: viability at highest tested concentration (MAXR) relative to DMSO; higher = less cytotoxic; conditions: SB.mhdgc-1 (hereditary c.1380delA CDH1 gastric cancer)
Where a name gives a salt, the structure may show the parent alone.
Listed here: items and their measured viability.

compound | viability / %
COc1cc2nc(-c3cc(F)ccc3O)nc(N[C@@H]3CNC[C@H]3C(C)(C)O)c2cc1OC (top concentration 46.0829 µM) | 3.32
Cn1cnc(N)c2ncnc1-2 [3-Methyladenine] (top concentration 46.0829 µM) | 81.8
CN1/C=C(\N=C(NC2=CC=C(C=C2)C(=O)N3CCOCC3)/C1=O)/C4=C(C)C(=CC=C4)NC(=O)C5=CC=C(C=C5)C(C)(C)C [CGI-1746] (top concentration 46.0829 µM) | 2.71
CC[C@H]1OC(=O)[C@H](C)[C@@H](O[C@H]2C[C@@](C)(OC)[C@@H](O)[C@H](C)O2)[C@H](C)[C@@H](O[C@@H]2O[C@H](C)C[C@H](N(C)C)[C@H]2O)[C@](C)(OC)C[C@@H](C)C(=O)[C@H](C)[C@@H](O)[C@]1(C)O [Clarithromycin] (top concentration 46.0829 µM) | 26.2
COc1cc2nc(N3CCN(C(=O)c4ccco4)CC3)nc(N)c2cc1OC [Prazosin hydrochloride] (top concentration 46.0829 µM) | 1.86
OC[C@H]1O[C@H](C[C@@H]1O)N2\C=C(F)/C(=O)NC2=O [Floxuridine] (top concentration 46.0829 µM) | 49.2
Clc1ccccc1C(c1ccccc1)(c1ccccc1)n1cccn1 [TRAM-34] (top concentration 46.0829 µM) | 66.9
CN[C@H]1CCC2=CC(=C(OC)C(=C2C/3=C/C=C(OC)\C(=O)/C=C13)OC)OC [Demecolcine] (top concentration 46.0829 µM) | 33.3
CCN[C@H]1C[C@H](C)[S+](=O)([O-])c2sc([S+](N)(=O)[O-])cc21 [Dorzolamide hydrochloride] (top concentration 46.0829 µM) | 138
COc1cc2ncnc(-n3nc(-c4ccccn4)nc3N)c2cc1OC (top concentration 46.0829 µM) | 2.27
CC(C(C)N1CC(=O)NC(=O)C1)N1CC(=O)NC(=O)C1 (stereo not drawn) [ICRF-193] (top concentration 46.0829 µM) | 73.7
CC[C@H](NC1=C2N=C[NH]C2=NC=N1)C/3=N/C4=C(C(=CC=C4)F)C(=O)N3C5=CC=CC=C5 [CAL-101] (top concentration 46.0829 µM) | 9.41
O=C(/C=C/c1c(C(=O)[O-])[nH]c2cc(Cl)cc(Cl)c12)Nc1ccccc1 [Gavestinel sodium] (top concentration 46.0829 µM) | 125
CO[C@@H]1[C@@H](O)[C@H](O)[C@@H](n2c3c(Cl)cccc3c3c4c(c5c6cccc(Cl)c6[nH]c5c32)C(=O)NC4=O)O[C@H]1CO [Rebeccamycin] (top concentration 46.0829 µM) | 13.6
c1cc(-c2cnn3cc(-c4ccc(OCCN5CCCCC5)cc4)cnc23)ccn1 [Dorsomorphin] (top concentration 46.0829 µM) | 2.62
C=CC(=O)Nc1cccc(Oc2nc(Nc3ccc(N4CCN(C)CC4)cc3OC)ncc2Cl)c1 [WZ-4002] (top concentration 46.0829 µM) | 2.18
Cc1cn([C@@H]2O[C@H](CO)[C@@H](O)[C@@H]2F)c(=O)[nH]c1=O [Clevudine] (top concentration 46.0829 µM) | 105
O=C(NCC[S+](=O)([O-])c1ccc(C(F)(F)F)cn1)c1ccc(Cl)cc1 [GSK-3787] (top concentration 46.0829 µM) | 75
C[C@@H](NC1=CC=CC=C1C(O)=O)C/2=C/C(=C\N3C(=O)/C=C(\N=C23)N4CCOCC4)C [AZD-6482] (top concentration 92.1659 µM) | 18.2
CNC(=O)Nc1ccc(-c2nc(N3CC4CCC(C3)O4)c3cnn(C4CCC5(CC4)OCCO5)c3n2)cc1 (top concentration 46.0829 µM) | 3.97
N/C(=N\C(=O)c1nc(Cl)c(N)nc1N)NCc1ccccc1 [Benzamil] (top concentration 46.0829 µM) | 3.54
CCCCn1c(=O)n(Cc2ccccc2F)c(=O)c2nc(Cc3ccc(NC(C)=O)cc3)[nH]c21 [cPEPCK inhibitor] (top concentration 46.0829 µM) | 54.1
C[C@]12CC[C@@H]3c4ccc(O)cc4CC[C@H]3[C@@H]1CC[C@@H]2O [Estradiol] (top concentration 46.0829 µM) | 74.8
